Hey, just so you know, these numbers are from ChEMBL document CHEMBL5104189.

Molecular target: Urokinase-type plasminogen activator/surface receptor (Homo sapiens, UniProt P00749+Q03405)
Assay: Inhibition of uPAR/uPA (unknown origin) interaction by ELISA
quantity: IC50 (µM)
Field format: number, assumed µM, no unit text.

Could you please provide reported IC50 for `CC[C@H](C)[C@@H](C(N)=O)n1cc([C@@H](CO)NC(=O)N2CCN([C@@H](CO)C(=O)N3CCN([C@@H](CCCCN)C(=O)O)CC3)CC2)nn1` ? Thanks!
2.85

Could you please provide reported IC50 for `NCCCC[C@H](C(=O)N1CCN([C@H](Cc2ccccc2)C(N)=O)CC1)N1CCN(C(=O)[C@H](N)CO)CC1` ? Thanks!
3.06

Could you please provide reported IC50 for `NCCCC[C@H](C(=O)N1CCN([C@@H](Cc2ccccc2)C(N)=O)CC1)N1CCN(C(=O)[C@H](N)CO)CC1` ? Thanks!
3.06

Could you please provide reported IC50 for `NC(=O)C[C@H](C(=O)N1CCN([C@H](CO)C(N)=O)CC1)N1CCN(C(=O)[C@H](N)Cc2ccccc2)CC1` ? Thanks!
14.7

Could you please provide reported IC50 for `CC[C@H](C)[C@@H](C(N)=O)n1cc([C@@H](CO)N2C(=O)N[C@@H](Cc3ccccc3)C2=O)nn1` ? Thanks!
8.35

Could you please provide reported IC50 for `NCCCC[C@H](C(=O)N1CCN([C@@H](CO)C(N)=O)CC1)n1cc([C@@H](Cc2ccccc2)N2C(=O)N[C@@H](CO)C2=O)nn1` ? Thanks!
2.45

Could you please provide reported IC50 for Cc1ccc(N2C(=O)C(O)=C(C(=O)c3ccc(Cl)cc3)C2c2cccc(F)c2)cc1Br (stereo not drawn) ? Thanks!
18.4

Could you please provide reported IC50 for `Cc1cccc2c(C(=O)N3CCN(c4c(C)n(C)c(=O)n(C)c4=O)CC3)cc(-c3ccccc3)nc12` ? Thanks!
15.5
